These data points were gathered from patent US5010057A.

// values below are reported pIC50
Target: endogenous renin from human plasma (Homo sapiens, UniProt P00797)
Construct: endogenous renin from human plasma
Sequence (P00797 67-406): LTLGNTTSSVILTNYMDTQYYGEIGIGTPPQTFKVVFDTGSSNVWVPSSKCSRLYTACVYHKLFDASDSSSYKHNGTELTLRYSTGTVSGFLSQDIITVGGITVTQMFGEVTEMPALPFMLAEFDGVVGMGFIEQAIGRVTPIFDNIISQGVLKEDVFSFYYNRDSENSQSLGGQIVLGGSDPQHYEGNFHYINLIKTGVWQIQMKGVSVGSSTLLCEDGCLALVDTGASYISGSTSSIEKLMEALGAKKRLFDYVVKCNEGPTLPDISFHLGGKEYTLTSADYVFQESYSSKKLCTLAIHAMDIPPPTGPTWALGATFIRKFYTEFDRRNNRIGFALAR
Assay: In vitro test: inhibition of plasma renin activity (angiotensin I formation, radioimmunoassay)
Conditions: 50% inhibition of plasma renin activity, pooled human plasma, 37° C., pH 5.6
Starred links: 1 amine or outer side, 2 acyl side, 3 side chain; linkers in the order of their positions; H or OH if unused. Non-standard residues stand in square brackets, D forms with d. Residues, ends and D or L forms follow the SMILES beside them. *: point of attachment. X2 = NCC(C(=O)[*:2])C(O)[C@H](CC1CCCCC1)N[*:1]; X1 = CC(C)C[C@H](N[*:1])C(O)C(CN)C(=O)[*:2]; NHCH2(2-pyridyl) = c1ccc(CN*)nc1; Boc = CC(C)(C)OC(=O)*
// pIC50: -log10(molar conc.)

As a guide, the following entries are already answered.
| compound | pIC50 |
| --- | --- |
| CC[C@H](C)[C@H](NC(=O)C(CN)C(O)[C@H](CC(C)C)NC(=O)[C@H](Cc1c[nH]cn1)NC(=O)[C@H](Cc1ccccc1)NC(=O)OC(C)(C)C)C(=O)OC (stereo partly drawn) | 5.43 |
| CC[C@H](C)[C@H](NC(=O)C(CN)C(O)[C@H](CC(C)C)NC(=O)[C@H](Cc1c[nH]cn1)NC(=O)[C@H](Cc1ccccc1)NC(=O)[C@@H]1CCCN1C(=O)OC(C)(C)C)C(=O)NCc1ccccn1 (stereo partly drawn) [Example 97] (Boc-PFH[X1]I-{NHCH2(2-pyridyl)}) | 7.66 |
| CC[C@H](C)[C@H](NC(=O)C(CN)C(O)[C@H](CC1CCCCC1)NC(=O)[C@H](Cc1c[nH]cn1)NC(=O)[C@H](Cc1ccccc1)NC(=O)[C@@H]1CCCN1C(=O)OC(C)(C)C)C(=O)NCc1ccccn1 (stereo partly drawn) [Example 85] (Boc-PFH[X2]I-{NHCH2(2-pyridyl)}) | 6.62 |
| CC(C)CNC(=O)C(CN)C(O)[C@H](CC1CCCCC1)NC(=O)[C@H](Cc1c[nH]cn1)NC(=O)[C@H](Cc1ccccc1)NC(=O)OC(C)(C)C (stereo partly drawn) | 5.05 |
| CC[C@H](C)[C@H](NC(=O)C(CN)C(O)[C@H](CC(C)C)NC(=O)[C@H](Cc1c[nH]cn1)NC(=O)[C@H](Cc1ccccc1)NC(=O)OC(C)(C)C)C(=O)NCc1ccccn1 (stereo partly drawn) | 6.00 |

query: For the compound shown here, CC[C@H](C)[C@H](NC(=O)C(CN)C(O)[C@H](Cc1ccccc1)NC(=O)[C@H](Cc1c[nH]cn1)NC(=O)[C@H](Cc1ccccc1)NC(=O)OC(C)(C)C)C(=O)NCc1ccccn1 (stereo partly drawn) , give the reported pIC50.
result: 5.60

query: # pIC50 lookup, item CC[C@H](C)[C@H](NC(=O)C(CN)C(O)[C@H](CC1CCCCC1)NC(=O)[C@H](Cc1c[nH]cn1)NC(=O)[C@H](Cc1ccccc1)NC(=O)OC(C)(C)C)C(=O)NCc1ccccn1 (stereo partly drawn)
result: 7.04

query: So what does the record say about pIC50 for CC[C@H](C)[C@H](NC(=O)C(CN)C(O)[C@H](Cc1ccccc1)NC(=O)[C@H](Cc1c[nH]cn1)NC(=O)[C@H](Cc1ccccc1)NC(=O)OC(C)(C)C)C(=O)OC (stereo partly drawn) ?
result: 4.96

query: Look at this compound and give its reported pIC50. CC[C@H](C)[C@H](NC(=O)C(CN)C(O)[C@H](CC1CCCCC1)NC(=O)[C@H](Cc1c[nH]cn1)NC(=O)[C@H](Cc1ccccc1)NC(=O)OC(C)(C)C)C(=O)OC (stereo partly drawn)
result: 5.85
